Recorded FPN EC50, one value per entry.
MEASUREMENT TARGET: T1, human ferroportin (SLC40A1) fused in frame with GFP, stably expressed in HEK293 cells (human, UniProt Q9NP59 1-571)
T1 sequence (looked up): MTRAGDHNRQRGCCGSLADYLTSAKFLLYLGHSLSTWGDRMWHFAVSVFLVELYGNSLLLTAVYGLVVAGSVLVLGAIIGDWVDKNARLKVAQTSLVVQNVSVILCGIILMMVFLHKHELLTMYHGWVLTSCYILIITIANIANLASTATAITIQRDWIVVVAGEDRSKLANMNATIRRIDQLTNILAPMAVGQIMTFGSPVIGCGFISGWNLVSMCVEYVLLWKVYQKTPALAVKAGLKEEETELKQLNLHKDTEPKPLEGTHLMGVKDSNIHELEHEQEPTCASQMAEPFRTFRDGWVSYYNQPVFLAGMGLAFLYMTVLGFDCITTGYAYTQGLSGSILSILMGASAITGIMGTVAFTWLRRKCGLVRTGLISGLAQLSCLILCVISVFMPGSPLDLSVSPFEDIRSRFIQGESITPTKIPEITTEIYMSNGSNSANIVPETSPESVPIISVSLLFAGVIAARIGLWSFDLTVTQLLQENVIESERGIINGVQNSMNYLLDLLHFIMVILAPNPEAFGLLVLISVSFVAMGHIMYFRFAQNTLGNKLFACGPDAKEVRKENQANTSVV
TEST METHOD NOTES: cell-based or functional assay
Starred links: 1 amine or outer side, 2 acyl side, 3 side chain; linkers in the order of their positions; H or OH if unused. Non-standard residues stand in square brackets, D forms with d. Groups on a side chain read outwards from the residue. *: point of attachment. ButanoicP = (R)-4-(pyrrolidin-2-yl)butanoic acid, O=C(CCC[C@@H]1CCCN1[*:1])[*:2]; Ala(1H-tetrazol-5-yl) = N[C@@H](Cc1nnn[nH]1)C(=O)O; Dip = N[C@H](C(=O)O)C(c1ccccc1)c1ccccc1; His(τ-Me) = Cn1cnc(C[C@H](N)C(=O)O)c1; Palmitoyl = CCCCCCCCCCCCCCCC(=O)*; β3hF = N[C@H](CC(=O)O)Cc1ccccc1; Isovaleryl = CC(C)CC(=O)*; Ahx = NCCCCCC(=O)O
Reply numerically in nM, unit not repeated.

# BINDER, FPN EC50 (nM)
measured = [
    ("Isovaleryl-ET[His(τ-Me)][Dip]PIIK([Ahx-Palmitoyl])[β3hF]-NH2 [Isovaleric Acid-E-T-[His_1Me]-[Dpa]-P-I-I-[Lys(Ahx_Palm)]-[bhPhe]-NH2]", 59.7),
    ("Isovaleryl-ETH[Dip][ButanoicP]K([Ahx-Palmitoyl])[β3hF]-NH2 [Isovaleric Acid-E-T-H-[Dpa]-[ButanoicP]-[Lys(Ahx_Palm)]-[bhPhe]-NH2]", 20.5),
    ("Isovaleryl-ETH[Dip]PAIK(Ac)[β3hF]-NH2 [Isovaleric Acid-E-T-H-[Dpa]-P-A-I-[Lys(Ac)]-[bhPhe]-NH2]", 175),
]

Let us move to another entry and its FPN EC50.
Exercise: // query FPN EC50 value for entry Isovaleryl-[Ala(1H-tetrazol-5-yl)]T[His(τ-Me)][Dip]PAIK([Ahx-Palmitoyl])-NH2 (SMILES CCCCCCCCCCCCCCCC(=O)NCCCCCC(=O)NCCCC[C@H](NC(=O)[C@@H](NC(=O)[C@H](C)NC(=O)[C@@H]1CCCN1C(=O)[C@@H](NC(=O)[C@H](Cc1cn(C)cn1)NC(=O)[C@@H](NC(=O)[C@H](Cc1nnn[nH]1)NC(=O)CC(C)C)[C@@H](C)O)C(c1ccccc1)c1ccccc1)[C@@H](C)CC)C(N)=O) [Isovaleric Acid-[Tet1]-T-[His_1Me]-[Dpa]-P-A-I-[Lys(Ahx_Palm)]-NH2]
Key: 30.2
